// provenance: patent US6063766A

# pKi listing for each entry below
Target: OCT1 transport protein (Rattus norvegicus, UniProt Q63089)
Sequence (Q63089 1-556): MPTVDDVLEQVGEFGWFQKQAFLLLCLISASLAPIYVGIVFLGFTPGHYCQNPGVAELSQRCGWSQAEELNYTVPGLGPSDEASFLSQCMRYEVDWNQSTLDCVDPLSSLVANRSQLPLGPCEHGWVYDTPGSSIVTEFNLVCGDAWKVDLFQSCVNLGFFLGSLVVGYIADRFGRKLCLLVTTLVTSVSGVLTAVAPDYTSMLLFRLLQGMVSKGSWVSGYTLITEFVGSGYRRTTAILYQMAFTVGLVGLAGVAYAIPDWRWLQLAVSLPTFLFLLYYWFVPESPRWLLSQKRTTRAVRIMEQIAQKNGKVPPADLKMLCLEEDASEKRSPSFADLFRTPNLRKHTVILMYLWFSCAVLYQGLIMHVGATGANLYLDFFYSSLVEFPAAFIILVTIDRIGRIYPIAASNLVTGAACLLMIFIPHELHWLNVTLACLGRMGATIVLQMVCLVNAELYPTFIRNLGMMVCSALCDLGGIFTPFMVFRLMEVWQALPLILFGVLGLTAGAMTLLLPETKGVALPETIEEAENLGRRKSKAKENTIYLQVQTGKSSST
Experiment: Inhibition of ^14 C-TEA uptake in Xenopus laevis oocytes injected with OCT1 cRNA
Details: Ki for inhibition of OCT1-elicited ^14 C-TEA uptake
Friendly reminder that pKi comes from taking -log10 of the concentration in mol/L.

| compound | pKi |
| --- | --- |
| CC[n+]1c(C=C2C=C(C)N=C(c3ccccc3)N2C)ccc2ccccc21 | 6.89 |

Now examine the next entry.
Param item = C[n+]1cccc(C(N)=O)c1 [N^1 -Methylnicotinamide] ; retrieve measured pKi.
3.00

---

Target: OCT1 transport protein (Rattus norvegicus)
Conditions: xenopus oocytes expressing oct1
Threshold 5 µM: Ki strictly smaller gives 1.0, otherwise 0.0.

Would you please look over these solved cases?
| compound | category |
| --- | --- |
| CC(C)C(c1ccccc1)C(O)CC[N+]1(C)CCCCC1 (centres unmarked) [Mepiperphenidol] | 0.0 |
| CCCCC[N+](CCCCC)(CCCCC)CCCCC | 1.0 |
| COc1cc(C(O)CNC(C)C)ccc1O (centres unmarked) | 0.0 |
| CCN1C(=Cc2ccc3ccccc3[n+]2CC)C=Cc2ccccc21 | 1.0 |

Report whether reported Ki is lower than 5 µM (strictly) for "C[n+]1ccc(-c2ccccc2)cc1"
0.0
